experimental.protocol: melting temperature; fluorescence melt of hairpins on a sequencing array, two-state fit, raised by 9.35 °C to match UV melts
applied.conditions: sodium 0.088 M
If the reported Tm equals or exceeds 50 °C, assign criterion met. If not, assign criterion not met.

Answered examples (6):
macromolecule.sequence: GTTGGTCGAAAGACAAC (((.(((....))))))
discrete.label: criterion not met
--
macromolecule.sequence: GATCTCAGCTGAGATC ((((((....))))))
discrete.label: criterion met
--
macromolecule.sequence: GATCCCTCCGGGATC ((((((...))))))
discrete.label: criterion met
--
macromolecule.sequence: GATCACATACGTGATC ((((((....))))))
discrete.label: criterion met
--
macromolecule.sequence: GGCAACCGAAAGGTGGCC (((.(((....))).)))
discrete.label: criterion met
--
macromolecule.sequence: GCTTGCACGAAAGTGAGC (((..(((....))))))
discrete.label: criterion not met

Say whether GTAGGCGGAAACGTCTGC (.((.((....)).)).) shows Tm of 50 °C or more.
criterion not met

Say whether GGGCAGAAATGCCC (((((....))))) shows Tm of 50 °C or more.
criterion met

Say whether GTTATATCGAAAGATAAC (((..(((....)))))) shows Tm of 50 °C or more.
criterion not met

Say whether GAATAGCGAAAGCTTTC (((.(((....)))))) shows Tm of 50 °C or more.
criterion not met

Say whether GCGTCGGGACGC ((((....)))) shows Tm of 50 °C or more.
criterion met

====

experimental.protocol: folding enthalpy; higher = less favourable; fluorescence melt of hairpins on a sequencing array, two-state fit
applied.conditions: sodium 0.088 M
metric: folding enthalpy (kcal/mol)
# value in kcal/mol; strip the unit string

These recorded examples may help you get a feel for the data.
macromolecule.sequence: GCGTAGGGAAACCCACAC (.((.((....)).)).)
result.value: -10.6
//
macromolecule.sequence: GCCTCGGCGAAAGCCGGC (((..(((....))))))
result.value: -4.13
//
macromolecule.sequence: GATCCAATCTGGATC ((((((...))))))
result.value: -33.1
//
macromolecule.sequence: GATCATGATCATGATC ((((((....))))))
result.value: -52.3
//
macromolecule.sequence: GCGGGGCGAAAGCGGCGC (((..((....))..)))
result.value: -34.7
//
macromolecule.sequence: GATCCAGATGTGGATC ((((((....))))))
result.value: -35.4

Note folding enthalpy for the sequence shown: GAGTAACGAAAGTTGCTC (((.(((....))).)))
-52

Note folding enthalpy for the sequence shown: GGGCCGGGAAACCGACCC (((.(((....))).)))
-43.9

Note folding enthalpy for the sequence shown: CGTACGGAAACGTCAACG ((((((....)))..)))
-13.5

Note folding enthalpy for the sequence shown: GGATTAGGAAACTGATCC ((((.((....)).))))
-33.7

Note folding enthalpy for the sequence shown: GCGCCGCCGAAAGGCCGC (((..(((....))))))
-15.2

Note folding enthalpy for the sequence shown: GACTCCACGAAAGTGGTC (((..(((....))))))
-8.79

Note folding enthalpy for the sequence shown: GATCGTACGCACGATC ((((((....))))))
-37.4

Note folding enthalpy for the sequence shown: GTAGTGGCGAAAGCCTAC (((..(((....))))))
-11.6

Note folding enthalpy for the sequence shown: GAGTTTACGAAAGTACTC (((..(((....))))))
-12.6

====

experimental.protocol: folding enthalpy; higher = less favourable; fluorescence melt of hairpins on a sequencing array, two-state fit
applied.conditions: sodium 0.088 M
If the reported folding enthalpy equals or exceeds -30 kcal/mol, assign Yes. If not, assign No.

Answered examples (5):
macromolecule.sequence: GCTACACGAAAGTGAAGC (((.(((....))).)))
discrete.label: No

macromolecule.sequence: GATCCGATAGCGGATC ((((((....))))))
discrete.label: No

macromolecule.sequence: CGCCACCGGAAACGGGCG (((..(((....))))))
discrete.label: Yes

macromolecule.sequence: GTAGGCCCGAAAGGGTAC (((..(((....))))))
discrete.label: Yes

macromolecule.sequence: GCGGTGCGAAAGCATTGC ((..(((....)))..))
discrete.label: Yes

Okay, now this sequence:
Say whether GATCCTACGGAGGATC ((((((....)))))) shows folding enthalpy of -30 kcal/mol or more.
No

====

experimental.protocol: folding enthalpy; higher = less favourable; fluorescence melt of hairpins on a sequencing array, two-state fit
applied.conditions: sodium 0.088 M
metric: folding enthalpy (kcal/mol)
# value in kcal/mol; strip the unit string

These recorded examples may help you get a feel for the data.
macromolecule.sequence: GGGCCACGAAAGTGCCC (((.(((....))))))
result.value: -21.9
--
macromolecule.sequence: ACGCAGAAATGCGT (((((....)))))
result.value: -21.7
--
macromolecule.sequence: GCGTCCCGACGC ((((....))))
result.value: -23.3
--
macromolecule.sequence: GTACGCGCGAAAGCGTAC (((..(((....))))))
result.value: -20.2
--
macromolecule.sequence: GTTCTAGGAAACTAGAAC (((((((....)))))))
result.value: -35

Note folding enthalpy for the sequence shown: GTGTCTGAAAAGACAC ((((((....))))))
-33.7

Note folding enthalpy for the sequence shown: GTTTTTTCGAAAGAAAAC (((..(((....))))))
-19.7

Note folding enthalpy for the sequence shown: GGAGAAGCGAAAGCTTCC (((..(((....))))))
-9.26

Note folding enthalpy for the sequence shown: GTGTCTCGAAAGAGCCAC (((.(((....))).)))
-28.9

Note folding enthalpy for the sequence shown: GCTCTTGGAAACAAGAAC (.(((((....))))).)
-16.3

Note folding enthalpy for the sequence shown: GTTGTGCGAAAGCAAAC (((.(((....))))))
-16.5

Note folding enthalpy for the sequence shown: GTGGGCGAAAGCCACCAC ((((((....)))..)))
-12.7

Note folding enthalpy for the sequence shown: GTCGTCGAAAGACTAGAC ((((((....)))..)))
-18.4

====

experimental.protocol: folding enthalpy; higher = less favourable; fluorescence melt of hairpins on a sequencing array, two-state fit
applied.conditions: sodium 0.088 M
If the reported folding enthalpy equals or exceeds -20 kcal/mol, assign TRUE. If not, assign FALSE.

Answered examples (8):
macromolecule.sequence: GTGGGTGGAAACATCCGC (.((.((....)).)).)
discrete.label: FALSE
//
macromolecule.sequence: GGCTTTGGAAACGAAGTC (.(((.(....).))).)
discrete.label: TRUE
//
macromolecule.sequence: GGACATGGAAACATGTTC (.(((((....))))).)
discrete.label: FALSE
//
macromolecule.sequence: GACACCGAAAGGTAGTC ((((((....))).)))
discrete.label: FALSE
//
macromolecule.sequence: GCCCTCGAAAGAGTTGGC ((((((....)))..)))
discrete.label: FALSE
//
macromolecule.sequence: GGAAACCGAAAGGTATCC (((.(((....))).)))
discrete.label: FALSE
//
macromolecule.sequence: GATCTCGGAAACGAGACC (.(((((....))))).)
discrete.label: TRUE
//
macromolecule.sequence: GATCCGTCACGGATC ((((((...))))))
discrete.label: FALSE

Say whether CGTCCGGAAACGGGTACG ((((((....)))..))) shows folding enthalpy of -20 kcal/mol or more.
FALSE

Say whether GTGCGCGAAAGCGAACAC ((((((....)))..))) shows folding enthalpy of -20 kcal/mol or more.
TRUE

Say whether GAGTGCGAAAGCAATCTC ((((((....)))..))) shows folding enthalpy of -20 kcal/mol or more.
FALSE

====

experimental.protocol: melting temperature; fluorescence melt of hairpins on a sequencing array, two-state fit, raised by 9.35 °C to match UV melts
applied.conditions: sodium 0.088 M
Reported values of Tm for individual entries
# value in °C; strip the unit string

These recorded examples may help you get a feel for the data.
macromolecule.sequence: GCAGTCGAAAGACAATGC ((((((....)))..)))
unit.abbrev: °C
result.value: 44.4
//
macromolecule.sequence: GATCGTGTCGACGATC ((((((....))))))
unit.abbrev: °C
result.value: 60.3
//
macromolecule.sequence: GGCATCGAAAGATCCGCC ((((((....)))..)))
unit.abbrev: °C
result.value: 49.3
//
macromolecule.sequence: GGCTCCGGAAACAGAGCC (((((.(....).)))))
unit.abbrev: °C
result.value: 50.5
//
macromolecule.sequence: GTAGCAGCGAAAGCTTAC (((..(((....))))))
unit.abbrev: °C
result.value: 26.8
//
macromolecule.sequence: GATCGTATATACGATC ((((((....))))))
unit.abbrev: °C
result.value: 56.6
//
macromolecule.sequence: GATCTGCATTCAGATC ((((((....))))))
unit.abbrev: °C
result.value: 48.9
//
macromolecule.sequence: GCTGTGTCGAAAGACAGC (((..(((....))))))
unit.abbrev: °C
result.value: 48.9
//
macromolecule.sequence: GAAGACGGAAACGTCCTC ((.((((....)))).))
unit.abbrev: °C
result.value: 35.9
//
macromolecule.sequence: GATCCAGCCGTGGATC ((((((....))))))
unit.abbrev: °C
result.value: 52.8

Note Tm for the sequence shown: GATCGTCTCGACGATC ((((((....))))))
65.3

Note Tm for the sequence shown: GAGCCAGGAAACCGGCTC (((((.(....).)))))
56.6
